# Kd per record follows
Molecular target: T1, RSV F ectodomain stabilized in the postfusion conformation (F ΔFP), subtype B (Respiratory syncytial virus subtype B, UniProt P13843 26-109; P13843 147-524)
T1 construct: extracellular domain; trimer; also called Postfusion subtype B; postF subtype B
Assay: BLI, IgG on AHQ sensor, 100 nM antigen
The figure you give is taken to be in nM; do not add the unit.

- BINDER: "ADI-14523 (antibody, V domains shown, full-length IgG (yeast-expressed); also called Antibody Number 83; Ab# 83) VH: EVQLVESGGGLVKPGGSLRLSCAASGFIFRNAWMSWVRQAPGKGLEWVGRIKRTSEGGSVDYATPVQGRFSISRDDSRNTLYLQMNSLETDDTAVYYCSTGPPYSYFDSSGYSVVDYWGQGTLVTVSS VL: QSVLTQPPSASGTPGQRVTISCSASSSNIGDNYFYWYQQLPGKAPTLLMYGSDQRSSGVPDRFSGSQSGTSASLAISGLRSEDEADYYCAAWDDSLSGPVFGGGTKLTVL"
  U: "nM"
  Kd: 0.131

### Prompt Tell me the measured Kd of ADI-14453 (antibody, V domains shown, full-length IgG (yeast-expressed); also called Antibody Number 16; Ab# 16) VH: QITLKESGPTVVKPTQTLTLTCTFSGFSLNTRGMGVAWIRQPPGGALEWLALVDWDDDKRYSPSLRSRLTITKDTSKNQVLFTMTTMDPADTATYYCAHIGLYDRGGYYLFYFDFWGQGTLVTVSS VL: DIVLTQSPSSLSASVGDRVTITCRASQSIASYVNWFQQKPGKAPVLLMFASSILQSGVPPRFRGSGSGTDFTLTITSLQPEDFATYYCQHTYTTPYIFGRGTKVEIK , please.
### Response 0.228

### Prompt Now give it for ADI-14498 (antibody, V domains shown, full-length IgG (yeast-expressed); also called Antibody Number 59; Ab# 59) VH: EVQLVESGPTLVKPTQTLTLTCTFSGFSLTTRGMGVGWIRQPPGRSLEWLAVIYWDGDVRYSPSLKGRLTITKDTPKNQVVLTMTNMDPVDTATYYCVHSDLYDRNAYYLHYFDFWGQGTLVTVSS VL: DIRLTQSPSSLSASVGDRVTITCRASQIIASYLNWYQQKPGKAPNLLIFAASSLQSGVPSRFRGSGSGTDFTLTISSLQPEDFATYYCQQSYSIPYTFGQGTKLEIK too.
### Response 2.27

### Prompt Could you do the same for ADI-14438 (antibody, V domains shown, full-length IgG (yeast-expressed); also called Antibody Number 1; Ab# 1) VH: QVQLVQSGAEVKKPGASVKVSCRASGFVFTSYDINWVRQAPGQGLEWMGRMNAHTGQVTYAQKFQDKVSMTRDVSITTAYLELSRLASEDTAVYYCARPDINWGQDAFDVWGQGTMVTVSS VL: DIRMTQSPSTLSASIGARVTITCRASQNIGNFLAWYQQKPGKAPKLLIYKASTLDPGVPSRFSGSGSGTEFTLTITSLQPDDFATFYCQQYKSDPTFGQGTKVEIK , please?
### Response 8.29

### Prompt Repeat with ADI-14486 (antibody, V domains shown, full-length IgG (yeast-expressed); also called Antibody Number 47; Ab# 47) VH: QVQLQESGPGLVKPSETLSLTCTVSGGSINNYFWSWIRQPPGKGLEWLGYIYNSGSTYYNPSLNSRVTISLQKSKNQFSLHLTSMTAADTAVYFCARHPSVIYGTFGANGGPNWFDPWGQGTLVTVSS VL: QSVLTQPASVSGSPGQSITISCTGTSSDVGGYNYVSWYQQHPGKAPKLMIFDVTYRPSGISNRFSGSKSGNTASLTISGLHSEDEADYYCSSYTGSNTVIFGGGTKLTVL
### Response 0.636
